# Measured Target: NaV1.7 (Homo sapiens, UniProt Q15858)
# Construct: expressed in transfected cells; tetracycline-inducible, kept under hygromycin and blasticidin selection
# Sequence (Q15858 whole entry): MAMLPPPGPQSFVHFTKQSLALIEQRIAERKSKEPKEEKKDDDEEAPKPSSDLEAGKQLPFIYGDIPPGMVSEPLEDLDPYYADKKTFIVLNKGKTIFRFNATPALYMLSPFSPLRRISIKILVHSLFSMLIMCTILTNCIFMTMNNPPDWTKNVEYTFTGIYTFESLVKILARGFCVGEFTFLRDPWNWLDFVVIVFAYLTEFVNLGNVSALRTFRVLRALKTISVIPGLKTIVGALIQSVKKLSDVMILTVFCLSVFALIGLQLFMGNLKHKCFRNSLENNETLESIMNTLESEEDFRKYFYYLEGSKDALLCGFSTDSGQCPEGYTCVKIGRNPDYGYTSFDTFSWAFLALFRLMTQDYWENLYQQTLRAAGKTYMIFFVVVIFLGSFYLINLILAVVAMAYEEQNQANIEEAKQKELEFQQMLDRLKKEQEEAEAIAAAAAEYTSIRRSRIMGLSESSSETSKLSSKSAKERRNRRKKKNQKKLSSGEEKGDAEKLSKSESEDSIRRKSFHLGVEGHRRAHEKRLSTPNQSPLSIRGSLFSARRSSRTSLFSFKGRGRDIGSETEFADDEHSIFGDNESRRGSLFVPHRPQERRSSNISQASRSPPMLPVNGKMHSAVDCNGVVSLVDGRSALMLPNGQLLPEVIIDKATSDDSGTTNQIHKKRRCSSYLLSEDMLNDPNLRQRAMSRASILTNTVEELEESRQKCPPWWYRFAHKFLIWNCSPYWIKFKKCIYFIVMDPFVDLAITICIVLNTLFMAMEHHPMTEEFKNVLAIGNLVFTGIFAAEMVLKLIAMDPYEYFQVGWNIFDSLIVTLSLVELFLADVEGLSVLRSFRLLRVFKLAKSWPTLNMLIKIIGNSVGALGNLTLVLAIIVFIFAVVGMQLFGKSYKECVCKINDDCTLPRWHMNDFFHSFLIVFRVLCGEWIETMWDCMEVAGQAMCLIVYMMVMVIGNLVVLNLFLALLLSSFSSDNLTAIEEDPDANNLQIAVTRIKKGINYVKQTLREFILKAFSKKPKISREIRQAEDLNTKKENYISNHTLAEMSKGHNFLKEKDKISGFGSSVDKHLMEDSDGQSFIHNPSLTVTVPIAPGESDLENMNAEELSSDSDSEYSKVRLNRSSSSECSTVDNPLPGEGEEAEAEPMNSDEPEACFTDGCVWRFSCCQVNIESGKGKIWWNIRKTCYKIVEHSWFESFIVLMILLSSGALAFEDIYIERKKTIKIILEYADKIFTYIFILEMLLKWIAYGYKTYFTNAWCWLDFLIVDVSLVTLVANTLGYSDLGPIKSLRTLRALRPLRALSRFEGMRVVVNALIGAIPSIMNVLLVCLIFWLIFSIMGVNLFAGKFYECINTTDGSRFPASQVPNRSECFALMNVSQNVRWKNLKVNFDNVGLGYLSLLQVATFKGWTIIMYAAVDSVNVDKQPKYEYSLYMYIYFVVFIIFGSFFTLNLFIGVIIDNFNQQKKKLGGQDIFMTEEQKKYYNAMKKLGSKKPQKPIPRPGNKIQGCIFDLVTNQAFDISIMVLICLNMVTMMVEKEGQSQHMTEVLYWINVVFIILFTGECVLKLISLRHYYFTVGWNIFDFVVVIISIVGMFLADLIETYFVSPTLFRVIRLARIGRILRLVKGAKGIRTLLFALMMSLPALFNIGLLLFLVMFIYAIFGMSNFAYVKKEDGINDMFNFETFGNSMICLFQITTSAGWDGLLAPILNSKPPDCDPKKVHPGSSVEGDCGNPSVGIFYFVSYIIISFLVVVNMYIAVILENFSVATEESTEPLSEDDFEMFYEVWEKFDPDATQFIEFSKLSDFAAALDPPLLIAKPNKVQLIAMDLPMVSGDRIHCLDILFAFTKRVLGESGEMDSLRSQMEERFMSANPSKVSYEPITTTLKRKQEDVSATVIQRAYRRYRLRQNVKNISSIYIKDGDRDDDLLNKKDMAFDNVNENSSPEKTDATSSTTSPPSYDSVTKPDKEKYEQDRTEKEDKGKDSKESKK
# Experimental Protocol: External block: extracellular inhibition of NaV1.7 current, whole cell patch clamp
# Assay type: cell-based
# Condition Summary: 3 μM test concentration, compound in external solution
Counter-ions that a name gives are not always drawn.
Items are presented alongside their recorded inhibition at 3 µM.

| Compound | Measured Target | inhibition at 3 µM |
| --- | --- | --- |
| CCOC(=O)c1cccc(Cl)c1NC(=O)C[P+]1(Cc2ccccc2)CCCCC1 | NaV1.7 (Homo sapiens, UniProt Q15858) | 40 to 70% |
| CCC(C(=O)Nc1c(C)cccc1C)[P+]1(Cc2ccccc2)CCCCC1 (stereo not drawn) [Compound 10, formate] | NaV1.7 (Homo sapiens, UniProt Q15858) | 40 to 70% |
| CCOC(=O)c1cccc(OCC)c1NC(=O)C[P+]1(Cc2ccccc2)CCCCC1 | NaV1.7 (Homo sapiens, UniProt Q15858) | < 40% |
| CCOC(=O)c1cccc(F)c1NC(=O)C[P+]1(Cc2ccccc2)CCCCC1 | NaV1.7 (Homo sapiens, UniProt Q15858) | < 40% |
| Cc1cccc(C)c1NC(=O)C[P+](c1ccccc1)(c1ccccc1)c1ccccc1.O=C[O-] [Compound 8, formate] | NaV1.7 (Homo sapiens, UniProt Q15858) | 40 to 70% |
| CCOC(=O)c1cccc(C)c1NC(=O)C[P+]1(Cc2ccccc2)CCCCC1 | NaV1.7 (Homo sapiens, UniProt Q15858) | 40 to 70% |

Source of measurements: patent US11701370B2
